tested on: KRAS PDC multicell spheroid viability; test: Anticancer human tumor 521955-158-R6-J3-PDC patient-derived pancreatic carcinoma cell line growth inhibition [KRAS2]; settings: second compound 10 µM; first compound 0.01 µM; active compounds read low
Mark class 1 only when viability, T/C stays strictly below 60%. Values equal to the cut-off are class 0.

A selection of reference data follows.
compound: Cn1ncnc1[C@H]1c2n[nH]c(=O)c3cc(F)cc(c23)N[C@@H]1c1ccc(F)cc1 + CC1OCC2(CCN(c3cnc(Sc4ccnc(N)c4Cl)c(N)n3)CC2)C1N
experimental-target: KRAS PDC multicell spheroid viability
class: class 0
--
compound: CC1COCCN1c1cc(-c2ccnn2C)c2ccnc(-c3ccn[nH]3)c2n1 (stereo not given) + CC1OCC2(CCN(c3cnc(Sc4ccnc(N)c4Cl)c(N)n3)CC2)C1N
experimental-target: KRAS PDC multicell spheroid viability
class: class 0
--
compound: Cn1ncnc1[C@H]1c2n[nH]c(=O)c3cc(F)cc(c23)N[C@@H]1c1ccc(F)cc1 + COc1cc2nc(C)nc(NC(C)c3cc(N)cc(C(F)(F)F)c3)c2cc1OC1CCOC1
experimental-target: KRAS PDC multicell spheroid viability
class: class 1

Would you kindly look at the next entry?
In: Determine whether this compound shows viability, T/C lower than 60% (ties excluded): CN(C)C/C=C/C(=O)Nc1cc2c(Nc3ccc(F)c(Cl)c3)ncnc2cc1O[C@H]1CCOC1 + C=CC(=O)N1CCN(c2nc(=O)n(-c3c(C)ccnc3C(C)C)c3nc(-c4c(O)cccc4F)c(F)cc23)C(C)C1
Out: class 0

* * *

system: KRAS PDC multicell spheroid viability; assay: Anticancer human tumor 521955-158-R6-J3-PDC cell line growth inhibition [KRAS2]; details: second compound 0.1 µM; first compound 0.1 µM; active compounds read low;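 further: drug exposure lasted seven days; 100% = DMSO vehicle wells and lower means fewer viable cells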
Binary label based on viability, T/C with cut-off 90%: below gives t, not below gives f.

Some solved entries appear below for comparison.
compound: Cn1nccc1Nc1nccc(-c2cc3c(s2)C(C)(C)N(CCN2CCOCC2)C3=O)n1 + CC1OCC2(CCN(c3cnc(Sc4ccnc(N)c4Cl)c(N)n3)CC2)C1N
class: f

compound: COC(=O)c1ccc2c(C(=Nc3ccc(N(C)C(=O)CN4CCN(C)CC4)cc3)c3ccccc3)c(O)[nH]c2c1 + C=CC(=O)N1CCN(c2nc(OCC3CCCN3C)nc3c2CCN(c2cccc4cccc(C)c24)C3)CC1CC#N
class: f

compound: CC(=O)OC12COC1CC(O)C1(C)C(=O)C(O)C3=C(C)C(OC(=O)C(O)C(NC(=O)OC(C)(C)C)c4ccccc4)CC(O)(C(OC(=O)c4ccccc4)C21)C3(C)C (stereo not given) + CC1OCC2(CCN(c3cnc(Sc4ccnc(N)c4Cl)c(N)n3)CC2)C1N
class: t

In: Here's an entry: CCN1CCN(Cc2ccc(Nc3ncc(F)c(-c4cc(F)c5nc(C)n(C(C)C)c5c4)n3)nc2)CC1 + CNCc1ccccc1-c1csc(C(C)Nc2nc(C)nc3cc(OC)c(OC)cc23)c1 . Is its viability, T/C below 90%?
Out: t

* * *

Reported viability, T/C values for the following compounds.
tested on: KRAS PDC multicell spheroid viability; experiment: Anticancer human tumor 521955-158-R6-J3-PDC cell line growth inhibition [KRAS2]; details: second compound 3.16 µM; first compound 0.1 µM; active compounds read low;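 further: drug exposure lasted seven days; 100% = DMSO vehicle wells and lower means fewer viable cells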
I only need the number, in %, no unit after it.

compound: Cn1ncnc1[C@H]1c2n[nH]c(=O)c3cc(F)cc(c23)N[C@@H]1c1ccc(F)cc1 + CC1OCC2(CCN(c3cnc(Sc4ccnc(N)c4Cl)c(N)n3)CC2)C1N
reading-unit: %
value-observed: 82
--
compound: CC(C)n1nc(-c2ccc3oc(N)nc3c2)c2c(N)ncnc21 + C=CC(=O)N1CCN(c2nc(=O)n(-c3c(C)ccnc3C(C)C)c3nc(-c4c(O)cccc4F)c(F)cc23)C(C)C1
reading-unit: %
value-observed: 56.4
--
compound: COc1cc2nccc(Oc3ccc(NC(=O)C4(C(=O)Nc5ccc(F)cc5)CC4)cc3)c2cc1OC + CC1OCC2(CCN(c3cnc(Sc4ccnc(N)c4Cl)c(N)n3)CC2)C1N
reading-unit: %
value-observed: 122
--
compound: CC(C)NCC(C(=O)N1CCN(c2ncnc3c2C(C)CC3O)CC1)c1ccc(Cl)cc1 (stereo not given) + COc1cc2nc(C)nc(NC(C)c3cc(N)cc(C(F)(F)F)c3)c2cc1OC1CCOC1
reading-unit: %
value-observed: 62.1
--
compound: CC1(C)CCC(CN2CCN(c3ccc(C(=O)NS(=O)(=O)c4ccc(NCC5CCOCC5)c([N+](=O)[O-])c4)c(Oc4cnc5[nH]ccc5c4)c3)CC2)=C(c2ccc(Cl)cc2)C1 + C=CC(=O)N1CCN(c2nc(=O)n(-c3c(C)ccnc3C(C)C)c3nc(-c4c(O)cccc4F)c(F)cc23)C(C)C1
reading-unit: %
value-observed: 93.5
--
compound: COc1cc(Nc2ncc3c(n2)-c2ccc(Cl)cc2C(c2c(F)cccc2OC)=NC3)ccc1C(=O)O + C=CC(=O)N1CCN(c2nc(OCC3CCCN3C)nc3c2CCN(c2cccc4cccc(C)c24)C3)CC1CC#N
reading-unit: %
value-observed: 25.7
--
compound: CCNC(=O)CC1N=C(c2ccc(Cl)cc2)c2cc(OC)ccc2-n2c(C)nnc21 (stereo not given) + C=CC(=O)N1CCN(c2nc(=O)n(-c3c(C)ccnc3C(C)C)c3nc(-c4c(O)cccc4F)c(F)cc23)C(C)C1
reading-unit: %
value-observed: 83
--
compound: CC1COCCN1c1cc(-c2ccnn2C)c2ccnc(-c3ccn[nH]3)c2n1 (stereo not given) + C=CC(=O)N1CCN(c2nc(OCC3CCCN3C)nc3c2CCN(c2cccc4cccc(C)c24)C3)CC1CC#N
reading-unit: %
value-observed: 31.9
--
compound: COc1cc2nccc(Oc3ccc(NC(=O)C4(C(=O)Nc5ccc(F)cc5)CC4)cc3)c2cc1OC + COc1cc2nc(C)nc(NC(C)c3cc(N)cc(C(F)(F)F)c3)c2cc1OC1CCOC1
reading-unit: %
value-observed: 73.9

Now for another entry.
In: # assay system KRAS PDC multicell spheroid viability: give viability, T/C of COC(=O)c1ccc2c(C(=Nc3ccc(N(C)C(=O)CN4CCN(C)CC4)cc3)c3ccccc3)c(O)[nH]c2c1 + C=CC(=O)N1CCN(c2nc(OCC3CCCN3C)nc3c2CCN(c2cccc4cccc(C)c24)C3)CC1CC#N
Out: 31.4

* * *

viability, T/C overview
System: KRAS PDC multicell spheroid viability
Experiment: Anticancer human tumor 521955-158-R6-J3-PDC cell line growth inhibition [KRAS2];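 further: drug exposure lasted seven days; 100% = DMSO vehicle wells and lower means fewer viable cells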
Settings: second compound 0.1 µM; first compound 1 µM; active compounds read low
Source text: Multicellular complex tumor spheroid response to RAS pathway inhibitors in combination with a targeted agents in patient-derived cell lines with oncogenic KRAS variants from multiple cancer types A high-throughput screen of multi-cell type tumor spheroids was designed to identify active combinations of targeted small molecules and KRAS pathway inhibitors. […] Compounds. […] If the clinical Cmax for an agent had not been determined, the highest concentration tested was 10 microM. […]
Write the number in % without appending the unit.

compound: O=C(c1cc(Cc2n[nH]c(=O)c3ccccc23)ccc1F)N1CCN(C(=O)C2CC2)CC1 + CC1OCC2(CCN(c3cnc(Sc4ccnc(N)c4Cl)c(N)n3)CC2)C1N
experimental-target: KRAS PDC multicell spheroid viability
readout-kind: viability, T/C
reading-unit: %
value-observed: 69.6
--
compound: COc1cc(Nc2ncc3c(n2)-c2ccc(Cl)cc2C(c2c(F)cccc2OC)=NC3)ccc1C(=O)O + C=CC(=O)N1CCN(c2nc(OCC3CCCN3C)nc3c2CCN(c2cccc4cccc(C)c24)C3)CC1CC#N
experimental-target: KRAS PDC multicell spheroid viability
readout-kind: viability, T/C
reading-unit: %
value-observed: 91
--
compound: CCNC(=O)CC1N=C(c2ccc(Cl)cc2)c2cc(OC)ccc2-n2c(C)nnc21 (stereo not given) + CNCc1ccccc1-c1csc(C(C)Nc2nc(C)nc3cc(OC)c(OC)cc23)c1
experimental-target: KRAS PDC multicell spheroid viability
readout-kind: viability, T/C
reading-unit: %
value-observed: 69.5
--
compound: CC(C)NCC(C(=O)N1CCN(c2ncnc3c2C(C)CC3O)CC1)c1ccc(Cl)cc1 (stereo not given) + C=CC(=O)N1CCN(c2nc(OCC3CCCN3C)nc3c2CCN(c2cccc4cccc(C)c24)C3)CC1CC#N
experimental-target: KRAS PDC multicell spheroid viability
readout-kind: viability, T/C
reading-unit: %
value-observed: 66.2

In: Recall the reported viability, T/C of COC(=O)c1ccc2c(C(=Nc3ccc(N(C)C(=O)CN4CCN(C)CC4)cc3)c3ccccc3)c(O)[nH]c2c1 + C=CC(=O)N1CCN(c2nc(OCC3CCCN3C)nc3c2CCN(c2cccc4cccc(C)c24)C3)CC1CC#N when tested on KRAS PDC multicell spheroid viability.
Out: 111

* * *

test system: KRAS PDC multicell spheroid viability; assay: Anticancer human tumor 521955-158-R6-J3-PDC cell line growth inhibition [KRAS2]; conditions: second compound 0.1 µM; first compound 1 µM; active compounds read low;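 further: drug exposure lasted seven days; 100% = DMSO vehicle wells and lower means fewer viable cells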
Examples of compounds with documented viability, T/C follow.
Your answer should be a plain number; it is taken to be in %.

Before answering, review these 4 worked examples.
compound: O=C(c1cc(Cc2n[nH]c(=O)c3ccccc23)ccc1F)N1CCN(C(=O)C2CC2)CC1 + COc1cc2nc(C)nc(NC(C)c3cc(N)cc(C(F)(F)F)c3)c2cc1OC1CCOC1
experimental-target: KRAS PDC multicell spheroid viability
reading-unit: %
viability, T/C: 75.5
//
compound: CCN1CCN(Cc2ccc(Nc3ncc(F)c(-c4cc(F)c5nc(C)n(C(C)C)c5c4)n3)nc2)CC1 + C=CC(=O)N1CCN(c2nc(=O)n(-c3c(C)ccnc3C(C)C)c3nc(-c4c(O)cccc4F)c(F)cc23)C(C)C1
experimental-target: KRAS PDC multicell spheroid viability
reading-unit: %
viability, T/C: 97.6
//
compound: COC(=O)c1ccc2c(C(=Nc3ccc(N(C)C(=O)CN4CCN(C)CC4)cc3)c3ccccc3)c(O)[nH]c2c1 + CNCc1ccccc1-c1csc(C(C)Nc2nc(C)nc3cc(OC)c(OC)cc23)c1
experimental-target: KRAS PDC multicell spheroid viability
reading-unit: %
viability, T/C: 134
//
compound: COc1cc2nccc(Oc3ccc(NC(=O)C4(C(=O)Nc5ccc(F)cc5)CC4)cc3)c2cc1OC + COc1cc2nc(C)nc(NC(C)c3cc(N)cc(C(F)(F)F)c3)c2cc1OC1CCOC1
experimental-target: KRAS PDC multicell spheroid viability
reading-unit: %
viability, T/C: 91.3

Kindly review the next compound as well.
In: Kindly indicate its recorded viability, T/C. Item: CC(=O)OC12COC1CC(O)C1(C)C(=O)C(O)C3=C(C)C(OC(=O)C(O)C(NC(=O)OC(C)(C)C)c4ccccc4)CC(O)(C(OC(=O)c4ccccc4)C21)C3(C)C (stereo not given) + C=CC(=O)N1CCN(c2nc(=O)n(-c3c(C)ccnc3C(C)C)c3nc(-c4c(O)cccc4F)c(F)cc23)C(C)C1
Out: 94.3
